biological target: human somatostatin receptor subtype 5 (Homo sapiens); construct: expressed in transfected cells; test: cAMP assay for SST5R (inhibition of cAMP in CHO-K1 cells); assay type: cell-based; details: Table B; class symbols; SST5 receptor over SST2 receptor
Sequence (P35346 whole entry): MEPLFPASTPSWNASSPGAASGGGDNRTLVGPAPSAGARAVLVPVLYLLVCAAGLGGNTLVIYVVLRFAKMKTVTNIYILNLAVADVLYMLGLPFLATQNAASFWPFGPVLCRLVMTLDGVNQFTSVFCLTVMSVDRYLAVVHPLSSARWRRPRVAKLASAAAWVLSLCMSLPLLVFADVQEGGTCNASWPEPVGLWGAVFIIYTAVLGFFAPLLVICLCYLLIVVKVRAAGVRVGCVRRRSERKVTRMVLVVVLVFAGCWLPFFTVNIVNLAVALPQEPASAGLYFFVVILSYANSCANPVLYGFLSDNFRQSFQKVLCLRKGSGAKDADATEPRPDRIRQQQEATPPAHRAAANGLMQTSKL

[
  {
    "compound": "COc1ncc(C(=O)N[C@@H](C)C2CC2)c(N2CC[C@](C)(N)C2)c1-c1ccnc(C(F)(F)F)c1 [1-166]",
    "studyTarget": "human somatostatin receptor subtype 5 (Homo sapiens)",
    "Fold selectivity for SST5 vs SST2": "+++ (+++=>500)"
  },
  {
    "compound": "C[C@H](NC(=O)c1cnc(C#N)c(-c2cc(F)cc(F)c2)c1N1CC[C@H](N)C1)C(F)(F)F [1-71]",
    "studyTarget": "human somatostatin receptor subtype 5 (Homo sapiens)",
    "Fold selectivity for SST5 vs SST2": "+++ (+++=>500)"
  },
  {
    "compound": "N#Cc1ncc(C(=O)NC(C2CC2)C2CC2)c(N2CC[C@H](N)C2)c1-c1cc(F)cc(F)c1 [1-70]",
    "studyTarget": "human somatostatin receptor subtype 5 (Homo sapiens)",
    "Fold selectivity for SST5 vs SST2": "+++ (+++=>500)"
  }
]
